TGT: Human D1 (Homo sapiens (Human))
Sequence (P21728 whole entry): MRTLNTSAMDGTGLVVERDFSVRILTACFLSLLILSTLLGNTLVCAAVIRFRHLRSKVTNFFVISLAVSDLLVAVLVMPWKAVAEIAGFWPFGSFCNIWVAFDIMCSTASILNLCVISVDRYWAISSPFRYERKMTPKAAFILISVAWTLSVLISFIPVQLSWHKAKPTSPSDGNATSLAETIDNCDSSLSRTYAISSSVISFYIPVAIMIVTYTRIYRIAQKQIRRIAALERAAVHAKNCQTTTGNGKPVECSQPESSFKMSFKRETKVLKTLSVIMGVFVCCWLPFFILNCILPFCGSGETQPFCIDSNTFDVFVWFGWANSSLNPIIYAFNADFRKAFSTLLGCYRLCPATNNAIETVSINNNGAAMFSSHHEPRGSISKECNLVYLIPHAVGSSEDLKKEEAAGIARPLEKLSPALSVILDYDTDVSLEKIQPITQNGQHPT
ASSAY_TEXT: Human D1 Receptor Binding Assay ([3H]-SCH23390 competition)
EXPERIMENTAL_PARAMETERS: read-out: Human D1 Receptor Binding, Ki (μM); Geometric mean of 2-3 determinations; over-expressing LTK human cell lines, 0.5 nM [3H]-SCH23390, 30 min at 37° C.; footnote b = single determination, c = geometric mean of ≧4 determinations
ENDPOINT_LABEL: Ki (µM)

Previously resolved entries follow.
Query: I'd like to know its Ki. The compound in question is Cc1cc(Oc2nccc3[nH]ncc23)ccc1-n1c(C)nc2cnccc21 [Example 30]
Reply: 0.268

Query: What would you report for COc1cc(Oc2nccc3[nH]ncc23)ccc1-c1c(C)ncnc1C [Example 33] ?
Reply: 0.124

Query: And Cc1cc(Oc2nccc3[nH]ncc23)c(F)cc1-c1c(C)ncnc1C [Example 36] ?
Reply: 0.118

Query: One more compound: Cc1ncnc(C)c1-c1ccc(Oc2nccc3[nH]ccc23)cc1Cl [Example 24]
Reply: 0.00984

Query: Same read-out for Cc1ncnc(C#N)c1-c1ccc(Oc2nccc3[nH]ncc23)cc1F [Example 35] ?
Reply: 0.0696

(1) Cc1n[nH]c(=O)c(C)c1-c1ccc(Oc2nccc3[nH]ccc23)cc1 [Example 7]
(2) Cc1ncnc(C)c1-c1ccc(Oc2nccc3[nH]ccc23)cc1 [Example 20]
Query: Which of the two items, 1 and 2 , has the greater recorded Ki? # reply format: chosen label
Reply: 2
(2: 0.0443 µM, 1: 0.00412 µM)

(1) Cc1ncnc(C)c1-c1ccc(Oc2nccc3[nH]ccc23)cc1F [Example 1]
(2) Cc1ncnc(N2CC(F)C2)c1-c1ccc(Oc2nccc3[nH]ccc23)cc1F [Example 25]
(3) Cc1ncc2nccn2c1-c1ccc(Oc2nccc3[nH]ccc23)cc1 [Example 19]
Query: Rank the items in ascending order with respect to Ki. Returns: the labels arranged in the requested order.
Reply: 2, 3, 1

(I) Cc1cc(Oc2nccc3[nH]ccc23)ccc1-c1c(C)n[nH]c(=O)c1C (single isomer, unassigned; ent-2) [Example 10]
(II) Cc1cc(Oc2nccc3[nH]ccc23)ccc1-c1c(C)ncc(=O)n1C (single isomer, unassigned) [Example 27]
Query: Smaller Ki value, I vs II ? Please reply using the label of the selected record.
Reply: I
(I: 0.00504 µM, II: 0.0106 µM)

(I) Cc1cc(Oc2nccc3[nH]ccc23)ccc1-c1cn[nH]c(=O)c1C [Example 28]
(II) Cc1ncnc(C)c1-c1ccc(Oc2nccc3[nH]ncc23)cc1C#N [Example 34]
Query: Which one would you say has the larger Ki value: I , or II ? Could you answer with the label of the item you picked?
Reply: II
